Source: patent US20060115815A1

Consider the following compounds and their measured log10(IC50) readings.
- TESTED SYSTEM: 84V90M (Human immunodeficiency virus type 1 group M subtype B, UniProt P04585, I572V/L578M)
- METHOD NOTES: biochemical
- Parameters: species or system HIV-1
PARAMETER MEASURED: log10(IC50) (log10 of the value in nM)

{"COMPOUND": "Nc1n[nH]c2ccc(CN3C(=O)N(Cc4cccc(OCc5ccccc5)c4)C(Cc4ccccc4)C(O)C(O)C3Cc3ccccc3)cc12 (centres unmarked) [m-OBn]", "PARAMETER MEASURED": "log10(IC50)", "RECORDED RESULT": 1.43}
{"COMPOUND": "CCCCN1C(=O)N(Cc2ccc3[nH]nc(N)c3c2)C(Cc2ccccc2)C(O)C(O)C1Cc1ccccc1 (centres unmarked) [CH3 (DMP-851)]", "PARAMETER MEASURED": "log10(IC50)", "RECORDED RESULT": 0.97}
{"COMPOUND": "Nc1cccc(CN2C(=O)N(Cc3cccc(C(=O)O)c3)C(Cc3ccccc3)C(O)C(O)C2Cc2ccccc2)c1 (centres unmarked)", "PARAMETER MEASURED": "log10(IC50)", "RECORDED RESULT": 2.48}
{"COMPOUND": "Nc1n[nH]c2ccc(CN3C(=O)N(CCCOCP(=O)(O)O)C(Cc4ccccc4)C(O)C(O)C3Cc3ccccc3)cc12 (centres unmarked) [OCH2PO3H2]", "PARAMETER MEASURED": "log10(IC50)", "RECORDED RESULT": 2.14}
{"COMPOUND": "CCOP(=O)(CCCNC(=O)c1cccc(CN2C(=O)N(Cc3cccc(N)c3)C(Cc3ccccc3)C(O)C(O)C2Cc2ccccc2)c1)OCC (centres unmarked)", "PARAMETER MEASURED": "log10(IC50)", "RECORDED RESULT": 1.46}

----------
- TESTED SYSTEM: recombinant HIV-1 protease (Human immunodeficiency virus type 1 group M subtype B, UniProt P04585)
- METHOD NOTES: biochemical
- Format: biochemical
- RUN PARAMETERS: read-out: Enzymatic assay WT IC50

{"COMPOUND": "CCOC(=O)C(C)OP(=O)(CCCNC(=O)c1cccc(CN2C(=O)N(Cc3ccc4[nH]nc(N)c4c3)[C@H](Cc3ccccc3)[C@H](O)[C@@H](O)[C@H]2Cc2ccccc2)c1)Oc1ccccc1 (stereo partly shown)", "IC50": "1.4 nM"}

----------
- Tested on: wild-type HIV-1 strain IIIB
- METHOD NOTES: microbe, parasite or virus in culture
- Assay type: cell-based
- RUN PARAMETERS: read-out: EC50
pEC50: −log10 of the molar value.

{"COMPOUND": "COC(=O)C(C)OP(=O)(COc1ccc(C[C@H](NC(=O)O[C@H]2CO[C@H]3OCC[C@H]32)[C@H](O)CN(CC(C)C)S(=O)(=O)c2ccc(OC)cc2)cc1)Oc1ccccc1 (stereo partly shown) [drawing 658 R1=OPh R2=Lac-Me]", "pEC50": "6.30 to 7.30"}
{"COMPOUND": "CCOC(=O)[C@H](C)OP(=O)(COc1ccc(C[C@H](NC(=O)O[C@H]2CO[C@H]3OCC[C@H]32)[C@H](O)CN(CC(C)C)S(=O)(=O)c2ccc(OC)cc2)cc1)Oc1cccc(CN2CCOCC2)c1 (stereo partly drawn) [drawing 660 R1=OPh-m-CH2Mor R2=(S)Lac-Et]", "pEC50": "6.30 to 7.30"}
{"COMPOUND": "CCOC(=O)C(CC)OP(=O)(COc1ccc(CC(NC(=O)OC2COC3OCCC23)C(O)CN(CC(C)C)S(=O)(=O)c2ccc(OC)cc2)cc1)Oc1ccccc1 [drawing 659 R1=OPh R2=(S)Hba-Et]", "pEC50": "> 7.30"}
{"COMPOUND": "CCOC(=O)[C@H](C)OP(=O)(COc1ccc(C[C@H](NC(=O)O[C@H]2CO[C@H]3OCC[C@H]32)[C@H](O)CN(CC(C)C)S(=O)(=O)c2ccc(OC)cc2)cc1)ON1CCOCC1 (stereo partly drawn) [drawing 660 R1=OMor R2=(S)Lac-Et]", "pEC50": "< 5.30"}
{"COMPOUND": "CCOC(=O)C(Cc1ccccc1)NP(=O)(COc1ccc(CC(NC(=O)OC2COC3OCCC23)C(O)CN(CC(C)C)S(=O)(=O)c2ccc(OC)cc2)cc1)NC(Cc1ccccc1)C(=O)OCC (stereo not shown) [drawing 655 R1=Phe-Et R2=Phe-Et]", "pEC50": "> 7.30"}
{"COMPOUND": "CCOC(=O)COP(=O)(COc1ccc(C[C@H](NC(=O)O[C@H]2CO[C@H]3OCC[C@H]32)[C@H](O)CN(CC(C)C)S(=O)(=O)c2ccc(OC)cc2)cc1)OCC(=O)OCC [drawing 656 R1=Glc-Et R2=Glc-Et]", "pEC50": "5.30 to 6.30"}
{"COMPOUND": "CCOP(=O)(OCC)c1ccc(CNCC(NC(=O)OC2COC3OCCC23)C(O)CN(CC(C)C)S(=O)(=O)c2ccc(OC)cc2)cc1 (stereo not shown)", "pEC50": "> 7.30"}
{"COMPOUND": "CCOC(=O)C(C)OP(=O)(COc1ccc(C[C@H](NC(=O)O[C@H]2CO[C@H]3OCC[C@H]32)[C@H](O)CN(CC(C)C)S(=O)(=O)c2ccccc2)cc1)Oc1ccccc1 (stereo partly shown)", "pEC50": "> 7.30"}
{"COMPOUND": "COc1ccc(S(=O)(=O)N(C[C@@H](O)[C@H](Cc2ccccc2)NC(=O)O[C@H]2CO[C@H]3OCC[C@H]32)CC(C)(C)COCP(=O)(O)O)cc1", "pEC50": "5.30 to 6.30"}
{"COMPOUND": "CC(C)CN(C[C@@H](O)[C@H](Cc1ccc(OCP(=O)(OCc2ccccc2)OC(C)C(=O)OCc2ccccc2)cc1)NC(=O)O[C@H]1CO[C@H]2OCC[C@H]21)S(=O)(=O)c1ccc(OCc2ccccc2)cc1 (stereo partly shown)", "pEC50": "< 5.30"}
{"COMPOUND": "CCOC(=O)C(C)OP(=O)(CCNc1ccc(CC(NC(=O)OC2COC3OCCC23)C(O)CN(CC(C)C)S(=O)(=O)c2ccc(OC)cc2)cc1)Oc1ccccc1 (single isomer, unassigned) [drawing 706]", "pEC50": "> 7.30"}
{"COMPOUND": "CCOC(=O)[C@H](C)OP(=O)(COc1ccc(C[C@H](NC(=O)O[C@H]2CO[C@H]3OCC[C@H]32)[C@H](O)CN(CC(C)C)S(=O)(=O)c2ccc(OC)cc2)cc1)Oc1cccc(CN(C)C)c1 (stereo partly drawn) [drawing 660 R1=OPh-m-CH2NMe2 R2=(S)Lac-Et]", "pEC50": "5.30 to 6.30"}
{"COMPOUND": "CCCCOC(=O)C(Cc1ccccc1)NP(=O)(COc1ccc(CC(NC(=O)OC2COC3OCCC23)C(O)CN(CC(C)C)S(=O)(=O)c2ccc(OC)cc2)cc1)NC(Cc1ccccc1)C(=O)OCCCC (stereo not shown) [drawing 655 R1=Phe-Bu R2=Phe-Bu]", "pEC50": "> 7.30"}
{"COMPOUND": "CCOC(=O)[C@H](C)OP(=O)(COc1ccc(C[C@H](NC(=O)O[C@H]2CO[C@H]3OCC[C@H]32)[C@H](O)CN(CC(C)C)S(=O)(=O)c2ccc(OC)cc2)cc1)Oc1cccc(CN(C)CCOC)c1 (stereo partly drawn) [drawing 660 R1=OPh-m-CH2NMeC2OM R2=(S)Lac-Et]", "pEC50": "6.30 to 7.30"}
{"COMPOUND": "CC(C)CN(C[C@@H](O)[C@H](Cc1ccc(OCP(=O)(OCc2ccccc2)OCc2ccccc2)cc1)NC(=O)O[C@H]1CO[C@H]2OCC[C@H]21)S(=O)(=O)c1ccc(C(F)(F)F)cc1", "pEC50": "> 7.30"}
{"COMPOUND": "CC(C)CN(C[C@@H](O)[C@H](Cc1ccc(OCP(=O)(OCc2ccccc2)OC(C)C(=O)OCc2ccccc2)cc1)NC(=O)O[C@H]1CO[C@H]2OCC[C@H]21)S(=O)(=O)c1ccc(F)cc1 (stereo partly shown)", "pEC50": "6.30 to 7.30"}
{"COMPOUND": "COc1ccc(S(=O)(=O)N(CC(C)C)C[C@@H](O)[C@H](Cc2ccc(OCP(=O)(Oc3ccccc3)O[C@@H](C)C(=O)OCCN3CCCCC3)cc2)NC(=O)O[C@H]2CO[C@H]3OCC[C@H]32)cc1 (stereo partly drawn) [drawing 659 R1=OPh R2=(S)Lac-EtPip]", "pEC50": "6.30 to 7.30"}
{"COMPOUND": "CCOP(=O)(Cc1ccc(CC(NC(=O)OC2COC3OCCC23)C(O)CN(CC(C)C)S(=O)(=O)c2ccc(OC)cc2)cc1)OCC (stereo not shown) [drawing 654 R1=OE R2=OE]", "pEC50": "> 7.30"}
{"COMPOUND": "CCOP(=O)(COc1ccc(CC(NC(=O)OC2COC3OCCC23)C(O)CN(CC(C)C)S(=O)(=O)c2ccc(OC)cc2)cc1)OCC (stereo not shown) [drawing 651 R1=OEt R2=OEt]", "pEC50": "> 7.30"}
